species on record: Homo sapiens; test: Cytotoxicity against renal SN12C; type: functional
Mark true only when GI50 stays strictly below 20 µM. Values equal to the cut-off are false.

1) O=C(NCCc1ccc(F)cc1)c1cc(NCc2cc(O)ccc2O)ccc1O    true
2) CCCCCCNC(=O)c1cc(NCc2cc(O)ccc2O)ccc1O    true
3) Oc1ccc(O)c(CNc2ccc(O)c(/C=C\CCc3ccccc3)c2)c1    true
4) O=C(NCCc1ccccc1)c1cc(NCc2cc(O)ccc2O)ccc1O    true

Next up:
Q: Please state whether GI50 is below 20 µM for Oc1ccc(O)c(CNc2ccc(O)c(/C=C/CCc3ccccc3)c2)c1
A: false
